test: refractive index (Na D-line) (dimensionless); xn = mol fraction of the nth substance listed; details: 338.15 K; 100 kPa; Liquid; Standard Abbe refractometry; x1 = 0.25
// reported refractive index per item
Could you respond with only the numeric value?

Before answering, review these 6 worked examples.
{"Molecule": "CCCC[N+](CCCC)(CCCC)Cc1ccccc1.[Cl-] [benzyltributylammonium chloride] + OCCOCCOCCO", "Experimental Result": 1.4764}
{"Molecule": "C[N+](C)(C)Cc1ccccc1.[Cl-] [trimethylbenzylammonium chloride] + OCCOCCO", "Experimental Result": 1.4798}
{"Molecule": "CCCC[N+](CCCC)(CCCC)Cc1ccccc1.[Cl-] [benzyltributylammonium chloride] + OCCO", "Experimental Result": 1.4825}
{"Molecule": "C[N+](C)(C)Cc1ccccc1.[Cl-] [trimethylbenzylammonium chloride] + OCCO", "Experimental Result": 1.4835}
{"Molecule": "C[N+](C)(C)Cc1ccccc1.[Cl-] [trimethylbenzylammonium chloride] + OCCOCCOCCO", "Experimental Result": 1.4763}
{"Molecule": "CCCC[N+](CCCC)(CCCC)Cc1ccccc1.[Cl-] [benzyltributylammonium chloride] + OCC(O)CO", "Experimental Result": 1.4933}

Task item: refractive index lookup needed for C[N+](C)(C)Cc1ccccc1.[Cl-] [trimethylbenzylammonium chloride] + OCC(O)CO , thanks.
Reply: 1.4989

Task item: Consider the molecule shown here: CCCC[N+](CCCC)(CCCC)Cc1ccccc1.[Cl-] [benzyltributylammonium chloride] + OCCOCCO What is its recorded refractive index?
Reply: 1.4786

---

test: xn = mol fraction of the nth substance listed; conditions: 328.15 K; 100 kPa; Liquid; Alternating current cell with electrodes; x1 = 0.25
electrical conductivity values for the molecules below.
State the answer as a number, implicitly in S/m.

Solved entries (count: 4):
{"Molecule": "CCCC[N+](CCCC)(CCCC)Cc1ccccc1.[Cl-] [benzyltributylammonium chloride] + OCCOCCOCCO", "Reported Property": "electrical conductivity", "Units Label": "S/m", "Experimental Result": 0.098}
{"Molecule": "C[N+](C)(C)Cc1ccccc1.[Cl-] [trimethylbenzylammonium chloride] + OCCOCCO", "Reported Property": "electrical conductivity", "Units Label": "S/m", "Experimental Result": 0.474}
{"Molecule": "CCCC[N+](CCCC)(CCCC)Cc1ccccc1.[Cl-] [benzyltributylammonium chloride] + OCCO", "Reported Property": "electrical conductivity", "Units Label": "S/m", "Experimental Result": 0.219}
{"Molecule": "C[N+](C)(C)Cc1ccccc1.[Cl-] [trimethylbenzylammonium chloride] + OCCOCCOCCO", "Reported Property": "electrical conductivity", "Units Label": "S/m", "Experimental Result": 0.325}

Task item: Looking for the measured electrical conductivity of C[N+](C)(C)Cc1ccccc1.[Cl-] [trimethylbenzylammonium chloride] + OCC(O)CO , can you help?
Reply: 0.231

Task item: Could you tell me which electrical conductivity is on file for CCCC[N+](CCCC)(CCCC)Cc1ccccc1.[Cl-] [benzyltributylammonium chloride] + OCCOCCO ?
Reply: 0.13

Task item: // lookup electrical conductivity for C[N+](C)(C)Cc1ccccc1.[Cl-] [trimethylbenzylammonium chloride] + OCCO
Reply: 1.12

Task item: // returns reported electrical conductivity for input CCCC[N+](CCCC)(CCCC)Cc1ccccc1.[Cl-] [benzyltributylammonium chloride] + OCC(O)CO
Reply: 0.065
